Attribution: PubChem BioAssay (NCATS)

# TEST: Quantitative High-Throughput drug screen in 47 multiple myeloma cell lines against the NCATS MIPE library collection: OCIMY7_PLB cell viability assay (AID 1918987); note: nearly all actives have a fitted effect of over 65% in size
# CONDITION_PARAMETERS: OCI-MY7 myeloma viability, CellTiter-Glo ATP, 48 h; series mostly up to 45.8 µM
Records with an inconclusive call do not appear. Activity calls are given as the source filed them. Calls come from the whole dose curve; as a rule, active = well fitted cell-killing curve with a large enough effect; inconclusive = small, poorly fitted or top-dose-only effect, or effect the other way; inactive = no such curve, though single readings can be large or run the other way.
Outcome codes: yes (1) (active), no (0) (inactive)

>>> category_label("CCN(CC)C(=O)c1ccc(C2=CC3(CCNCC3)Oc3cccc(O)c32)cc1")
"no (0)"
>>> category_label("CCN1C[C@]2(OC(=O)c3ccccc3NC(C)=O)CC[C@H](OC)[C@@]34[C@H]5CC6[C@@H](OC)C[C@](O)(C(C[C@@H]23)[C@@H]14)[C@@]5(O)[C@@H]6OC")
"no (0)"
>>> category_label("C[C@@H]1CC[C@H]2[C@@H](C)C(=O)O[C@@H]3O[C@@]4(C)CC[C@H]1[C@]32OO4")
"yes (1)"

* * *

# TEST: Quantitative High-Throughput drug screen in 47 multiple myeloma cell lines against the NCATS MIPE library collection: MM1S_ATCC cell viability assay (AID 1918980); note: nearly all actives have a fitted effect of over 45% in size; note: potency is the fitted concentration of half-maximal effect
# CONDITION_PARAMETERS: MM1S myeloma viability, CellTiter-Glo ATP luminescence, 48 h; series mostly up to 45.8 µM
Inconclusive results are not listed. Calls of active or inactive are those of the source. Calls come from the whole dose curve; as a rule, active = well fitted cell-killing curve with a large enough effect; inconclusive = small, poorly fitted or top-dose-only effect, or effect the other way; inactive = no such curve, though single readings can be large or run the other way.
MEASUREMENT_KIND: Potency

>>> value_reported("Cc1nc(-c2ccc(-c3ccc(C(=O)N4CCc5cc6c(cc54)C4(CCN(C)CC4)CO6)cc3)c(C)c2)no1")
"inactive"
>>> value_reported("Cc1ccccc1-n1c(Cn2ncc3c(N)ncnc32)nc2cccc(C)c2c1=O")
"118 nM (active)"
>>> value_reported("COc1cc2cc(c1Cl)N(C)C(=O)C[C@H](OC(=O)C(C)C)[C@]1(C)O[C@H]1[C@H](C)[C@@H]1C[C@@](O)(NC(=O)O1)[C@H](OC)C=CC=C(C)C2")
"inactive"
>>> value_reported("O=C(N[C@@H](COc1ccc2[nH]c(=O)[nH]c2c1)c1ccccc1)c1cccn(Cc2ccc(F)c(F)c2)c1=O")
"16600 nM (active)"
>>> value_reported("CCNC(=O)C[C@@H]1N=C(c2ccc(Cl)cc2)c2cc(OC)ccc2-n2c(C)nnc21")
"1050 nM (active)"
>>> value_reported("CSCC[C@@H](NC(=O)[C@@H](Cc1ccccc1)NC(=O)CNC(=O)CNC(=O)[C@@H](N)Cc1ccc(O)cc1)C(=O)O")
"inactive"
>>> value_reported("C=C[C@@H]1CN2CCC1C[C@@H]2[C@@H](O)c1ccnc2ccccc12 (stereo partly drawn)")
"13200 nM (active)"
>>> value_reported("Cc1[nH]nc2ccc(-c3cncc(OC[C@@H](N)Cc4c[nH]c5ccccc45)c3)cc12")
"833 nM (active)"

* * *

# TEST: qHTS of pediatric cancer cell lines to identify multiple opportunities for drug repurposing: Primary screen for SK-N-SH cells (AID 1347098); note: nearly all actives have a fitted effect of over 65% in size; note: potency is the fitted concentration of half-maximal effect
# CONDITION_PARAMETERS: SK-N-SH viability, CellTiter-Glo luminescence, 48 h; series mostly up to 57 µM
Results filed as inconclusive are left out. The source made the active and inactive calls. Calls follow the shape of the dose curve; as a rule, active = well fitted cell-killing curve with a large enough effect; inconclusive = small, poorly fitted or top-dose-only effect; inactive = no such curve, though single readings can be large or run the other way.
MEASUREMENT_KIND: Potency

>>> value_reported("OCCCBr")
"inactive"
>>> value_reported("O=S(=O)(F)Cc1ccccc1")
"inactive"
>>> value_reported("Fc1cc(Br)ccc1CBr")
"inactive"
>>> value_reported("Cc1ccc(Cl)c(O)c1")
"inactive"
>>> value_reported("O=C(O)CNC(=O)c1c(O)c2ccccc2n(Cc2ccccc2)c1=O")
"inactive"
>>> value_reported("CC1=C(C(=O)O)N2C(=O)[C@@H](N)[C@H]2SC1")
"inactive"
>>> value_reported("O=C(Nc1ccccc1-c1ccc(Cl)cc1)c1cccnc1Cl")
"inactive"
>>> value_reported("C[C@H]([C@H](O)CCC(C)(C)O)[C@H]1CC[C@@]2(O)C3=CC(=O)[C@@H]4C[C@@H](O)[C@@H](O)C[C@]4(C)[C@@H]3CC[C@]12C")
"inactive"
>>> value_reported("COC(=O)[C@@H](N)CCCN=C(N)N[N+](=O)[O-]")
"6.07 µM (active)"
>>> value_reported("C[C@@H]1O[C@@H](O[C@@H]2C=C3CC[C@@H]4[C@@H](CC[C@]5(C)[C@H](c6ccc(=O)oc6)CC[C@@]45O)[C@@]3(C)CC2)[C@H](O)[C@H](O)[C@H]1O")
"0.0961 µM (active)"
>>> value_reported("O=c1cccc2n1CC1CNC[C@H]2C1")
"24.1 µM (active)"
>>> value_reported("CC(Cc1ccc(O)cc1)NCC(O)c1cc(O)cc(O)c1 (stereo unspecified)")
"inactive"
>>> value_reported("CCCCCCCCCC(CC)c1ccc(S(=O)(=O)O)cc1 (stereo unspecified)")
"inactive"
>>> value_reported("Nc1ccc(Sc2ccc(N)cc2)cc1")
"inactive"
>>> value_reported("O=S(=O)(O)C(F)(F)C(F)(F)C(F)(F)C(F)(F)F")
"inactive"
>>> value_reported("COCC1(CO)C(=O)C2CCN1CC2 (stereo unspecified)")
"1.08 µM (active)"
>>> value_reported("CC(C)N[C@@H]1CCn2c(=O)[nH]c3cccc(c32)[C@@H]1O")
"8.57 µM (active)"
>>> value_reported("CCCC[N+]1(C)[C@H]2CC(OC(=O)[C@H](CO)c3ccccc3)C[C@H]1[C@H]1O[C@H]12 (stereo partly specified)")
"inactive"
>>> value_reported("CCc1c(C(=O)C(N)=O)c2c(OCC(=O)O)cccc2n1Cc1ccccc1")
"inactive"
>>> value_reported("C[C@]12CC[C@H](O)CC1=CC[C@H]1[C@H]3CCC(=O)[C@@]3(C)CC[C@@H]12")
"inactive"
>>> value_reported("C=CCC1=C(C)C(OC(=O)C2C(C=C(C)C)C2(C)C)CC1=O (stereo unspecified)")
"inactive"
>>> value_reported("CC(C)(C)NC[C@H](O)c1ccc(O)cc1Cl")
"inactive"
>>> value_reported("Cc1ccccc1-n1c(Cn2cnc3c(N)ncnc32)nc2cccc(C)c2c1=O")
"8.57 µM (active)"
>>> value_reported("CC[C@@]1(O)C(=O)OCc2c1cc1n(c2=O)Cc2cc3ccccc3nc2-1")
"0.121 µM (active)"
>>> value_reported("CCC1(CCC(C)C)C(=O)NC(=O)NC1=O")
"inactive"
>>> value_reported("CN1CCN(c2ccc([N+](=O)[O-])c3no[n+]([O-])c23)CC1")
"inactive"
>>> value_reported("Nc1c(Cl)c(Cl)c(Cl)c(Cl)c1Cl")
"inactive"
>>> value_reported("COC1=C[C@@H]2[C@@H]3Cc4ccc(OC)c(O)c4[C@]2(CCN3C)CC1=O")
"6.07 µM (active)"
>>> value_reported("Cc1cc(O)ccc1Cl")
"inactive"
>>> value_reported("CC(C)(O)C=CC(=O)[C@](C)(O)[C@H]1[C@H](O)C[C@]2(C)[C@@H]3CC=C4[C@@H](C=C(O)C(=O)C4(C)C)[C@]3(C)C(=O)C[C@@]12C")
"0.152 µM (active)"
>>> value_reported("COc1cccc2c1[C@]13CCN(CC4CC4)[C@H](C2)[C@]1(OC)CCC(=O)C3")
"inactive"
>>> value_reported("CC(=Cc1csc(C)n1)[C@@H]1C[C@H]2O[C@]2(C)CCC[C@H](C)[C@@H](O)[C@@H](C)C(=O)C(C)(C)[C@@H](O)CC(=O)O1")
"inactive"
>>> value_reported("C[C@@H]1[C@H](O)[C@@H](C)C=CC=CCCC=CC=CC=CC=C[C@H](O[C@H]2O[C@@H](C)[C@H](O)[C@@H](N)[C@@H]2O)CC2O[C@](O)(C[C@@H](O)[C@H](O)CC[C@@H](O)C[C@@H](O)C[C@@H](O)CC(=O)O[C@H]1C)C[C@H](O)[C@H]2C(=O)O")
"inactive"
>>> value_reported("O=C(O)COc1ccccc1")
"inactive"
>>> value_reported("O=S(=O)(O)C(F)(F)C(F)(F)C(F)(F)C(F)(F)C(F)(F)C(F)(F)C(F)(F)C(F)(F)F")
"inactive"
>>> value_reported("O=[N+]([O-])c1ncc[nH]1")
"inactive"
>>> value_reported("C[C@@H]1CC[C@@]2(OC1)O[C@H]1C[C@H]3[C@@H]4CC=C5C[C@@H](O[C@@H]6O[C@H](CO)[C@@H](O[C@@H]7O[C@@H](C)[C@H](O)[C@@H](O)[C@@H]7O)[C@H](O)[C@@H]6O[C@@H]6O[C@@H](C)[C@H](O)[C@@H](O)[C@@H]6O)CC[C@]5(C)[C@@H]4CC[C@]3(C)[C@@H]1[C@H]2C")
"12.1 µM (active)"
>>> value_reported("NC1=NC(=O)N2CC12 (stereo unspecified)")
"inactive"
>>> value_reported("CN[C@@H]1Cc2cccc3[nH]c(=O)n(c23)C1")
"inactive"
>>> value_reported("C=CC(=O)NCNC(=O)C=C")
"inactive"
>>> value_reported("O=C(N[C@H]1CN2CCC1CC2)c1ccc(Cl)cc1")
"6.81 µM (active)"
